Origin of values: the RNAGym collection of RNA variant scans (doi:10.1093/nar/gkz1192)

B1: CPEB3 Ribozyme (parent)
chain: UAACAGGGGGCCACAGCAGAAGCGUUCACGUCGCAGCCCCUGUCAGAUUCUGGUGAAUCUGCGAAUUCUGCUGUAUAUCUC

- Variants of: B1
- PROCEDURE_SUMMARY: self-cleavage, relative activity (ratio to wild type); higher = more cleavage; in vitro, sequencing
RECORDED_ENDPOINT: self-cleavage

The recorded self-cleavage for entry UAACAGGGGGCCAAAGCAGAAGCGUUCACGUCGCUGCCCCUGUCAGAUUCUGGUGAAUCUGCGAAUUCUGCUGUAUAUCUC [C14A A35U] equals 0.4

The recorded self-cleavage for entry UAACAGGGGGCCACAGCAGAAGCGUUCACGUAGCAGCCCCUGUCAGAUUCUGGUGAAUCUGCAAAUUCUGCUGUAUAUCUC [C32A G63A] equals 0.4

The recorded self-cleavage for entry UAACAGGGGGCCACAGCAGUAGCGUUCACGUCGCAGCCCCUGUCAGAUUCUGGUGAAUCUGCGAAUUCUGCUGAAUAUCUC [A20U U74A] equals 0.54

The recorded self-cleavage for entry UAACAGGGGGCCACAGCAGAAGCGUACACGUCGCAGCCCCUGUCAGAUUCUGUUGAAUCUGCGAAUUCUGCUGUAUAUCUC [U26A G53U] equals 1.04

The recorded self-cleavage for entry UAACAGGGGGCCACAGCAGAAGCGUUCACGUCGCAGCCCCUGUCAGUUUCUGGUGAAUCUGCGAAUUCUUCUGUAUAUCUC [A47U G70U] equals 0.14

The recorded self-cleavage for entry UAACAGGGGGCCACAGCAGAAGCGUUCUCGUUGCAGCCCCUGUCAGAUUCUGGUGAAUCUGCGAAUUCUGCUGUAUAUCUC [A28U C32U] equals 0.17

The recorded self-cleavage for entry UAACAGGGGGCCACUGCAGAAGCGUUCACGUCGCAGCCCCGGUCAGAUUCUGGUGAAUCUGCGAAUUCUGCUGUAUAUCUC [A15U U41G] equals 0.26

The recorded self-cleavage for entry UAACAGGGGGCCACAGCAGAAGCGCUCACGUCGCAGCCCCUGUCAGAGUCUGGUGAAUCUGCGAAUUCUGCUGUAUAUCUC [U25C U48G] equals 0.39

The recorded self-cleavage for entry UAACAGGGGGCCACAGCAGAAGCGUUCACGUCGUAGCCCCUGUCAGAUUCUGGUGAAUCUGCGAAUUCUGCUGUAUAUCUC [C34U] equals 0.35

The recorded self-cleavage for entry UAACAGGGAGCCACAGCAGAAGCGUUCACGUCGCAGCCCCUGUCAGAUUCUGGUGAAUCUGCGAAUUCUGCUGUAUAUCAC [G9A U80A] equals 0.21

The recorded self-cleavage for entry UAACAGGGGGCCACAGCAGUAGCGUUCACGUCGCAGCCCCUGUCAGAUUAUGGUGAAUCUGCGAAUUCUGCUGUAUAUCUC [A20U C50A] equals 0.21

The recorded self-cleavage for entry UAACAGGGGGCCACAGCAGAAGCGUUCACGUCGCAGCCCCUGUCAGAUUCUGGUGAAGCUGCGAAUUCUGCAGUAUAUCUC [U58G U72A] equals 0.24

The recorded self-cleavage for entry UAACAGGGGGCUACAGCAGAAGCGUUCACGUCGCAGCCCCUGUCAGAUUCUGGUGAAUCUGCGAAUUCUGCUGUAUAUCAC [C12U U80A] equals 1.26

The recorded self-cleavage for entry UAACAGGGGGCCACAGCAGAAGCGUUCACGUCGCAGCCCCUGUCAGAUUCUGGUGAAUCUGCGAAUUCUGCUGAAUAACUC [U74A U78A] equals 1.18

The recorded self-cleavage for entry UAACAGGGGGCCACAGCAGAUGCGUUCACGUCGCAGCCCCUGUCAGAUUUUGGUGAAUCUGCGAAUUCUGCUGUAUAUCUC [A21U C50U] equals 0.4

The recorded self-cleavage for entry UAACAGGGGGCCACAGCAGAAGCGUUCACGUCUCAGCCCCUGUCAGAUUCUGGUGAAUCAGCGAAUUCUGCUGUAUAUCUC [G33U U60A] equals 0.48

The recorded self-cleavage for entry UAACAGGAGGCCACAGCAGGAGCGUUCACGUCGCAGCCCCUGUCAGAUUCUGGUGAAUCUGCGAAUUCUGCUGUAUAUCUC [G8A A20G] equals 0.25

The recorded self-cleavage for entry UGACAGGGGGCCACAGCAGAAGCGUUCACGUCGCAGCCCCUGCCAGAUUCUGGUGAAUCUGCGAAUUCUGCUGUAUAUCUC [A2G U43C] equals 0.34

The recorded self-cleavage for entry UAACAGGGGGCCACAGCAGAAGAGUUCACGUCGCAGCCCCUGUCAGAUUCUGGUGAGUCUGCGAAUUCUGCUGUAUAUCUC [C23A A57G] equals 0.26

The recorded self-cleavage for entry UAACAGGGGGCCACAGCAGAAGCGUUCACGUCGCAGCCCCUGUCAGAUUCUGGUGAAUCUGCGAAUUCUGUUGUACAUCUC [C71U U76C] equals 0.84

The recorded self-cleavage for entry UAACAGGGGGCCACAGCAGAGGCGUUCACGCCGCAGCCCCUGUCAGAUUCUGGUGAAUCUGCGAAUUCUGCUGUAUAUCUC [A21G U31C] equals 0.24

The recorded self-cleavage for entry UAACAGGGGGCCACAGCAGAAGUGUUCACGUCGCAGCCCCUGUCAGAUUCUGGUGAAUCUGCGAAUUCAGCUGUAUAUCUC [C23U U69A] equals 0.1
